# Experimental Protocol: Stability test (high temperature, high humidity and light tests)
# Type: physicochemical
# Protocol Conditions: high temperature, high humidity or light conditions for 10 days

{"columns": ["Molecule", "stability (in words)"],
 "data": [
  ["COC(=O)C1=C(CN2CCN3C(=O)N(c4ccc(CCC(=O)O)cc4F)C[C@@H]3C2)N=C(c2nccs2)N[C@H]1c1ccc(F)cc1Cl.O=S(=O)(O)O [Sulfate crystal form A of the compound having Formula (Ia)]", "very good"],
  ["COC(=O)C1=C(CN2CCN3C(=O)N(c4ccc(CCC(=O)O)cc4F)C[C@@H]3C2)N=C(c2nccs2)N[C@H]1c1ccc(F)cc1Cl.CS(=O)(=O)O", "very good"],
  ["CN(C)C=O.COC(=O)C1=C(CN2CCN3C(=O)N(c4ccc(CCC(=O)O)cc4F)C[C@@H]3C2)NC(c2nccs2)=N[C@H]1c1ccc(F)cc1Cl", "very good"]
]}
